Entries annotated with measured IC50 (neutralization)
Biological target: LASV A19 (lineage II) glycoprotein (Lassa virus, strain A19)
Experiment: cell-based or functional assay
Quick reminder: number only, in µg/mL, skip the unit.

Known results for binders:
8.11G (antibody, V domains shown) VH: QVQLQESGPGLVKPSETLSLTCSISGVSTRNYYWSWIRQSPGKGLEWIGYIFNIGTTNYNPSLKSRLTISVDTSKNQFSLKITSVTAADTAVYYCASGFEYGDYTFDYWGQGTPVTVSS VL: EIVLTQSPATLSVSPGGRASLSCRASQSIGDKLSWYQQKPGQAPRLVIYGAYTRATDISPRFSGSRSGTDFNLTISRMQSGDFAVYFCQQYENWPRTFGQGTKLEIKR; 1.48
9.8A (antibody, V domains shown) VH: EVQLVQSGGRLVQPGGSLRLSCVASGFTFSSHAMSWVRQAPGKGLEWVSGFSGSSGTTKYADSVKGRFTISRDNSKKTLYLQMNSLRAEDTAVYYCAKGFSPFRGVQFPYFDYWGQGTLVTVSS VL: DIVMTQSPSTLSASVGDRVTITCRASQSIDRWLAWYQQKPGKAPKLLIYQASSLERGVPSRFSGSGSGTEFTLTISSLQPDDFATYYCQQYNGYPLTFGGGTKVEIKR; 0.15

Could you now look at the following binder, please?
// sample 37.2D (antibody, V domains shown) VH: EVQLVQSGAEVKKPGASVKVSCKASGYTFTKYGISWVRQAPGQGLEWMGWISAFNGYTRYGQRFQGKVTMTTDTSTNTASLEVRTLTSNDTAVYYCARQYPDQYSSSGWPRLFAMDVWGQGTTVIVSP VL: ETTLTQSPATLSVSPGETATLSCRASQNVINNLAWYQQKPGQAPRLLIYGASTRATGIPARFSGSGSGTEFTLTISSMQSEDFAVYYCQQYNDWPRSFGQGTRLDIRR , its IC50 (neutralization) was 0.469
